Data credit: patent US7183267B2

# Tested On: TEM-1 β-lactamase (Escherichia coli)
# Sequence (P62593 24-286 limits assumed): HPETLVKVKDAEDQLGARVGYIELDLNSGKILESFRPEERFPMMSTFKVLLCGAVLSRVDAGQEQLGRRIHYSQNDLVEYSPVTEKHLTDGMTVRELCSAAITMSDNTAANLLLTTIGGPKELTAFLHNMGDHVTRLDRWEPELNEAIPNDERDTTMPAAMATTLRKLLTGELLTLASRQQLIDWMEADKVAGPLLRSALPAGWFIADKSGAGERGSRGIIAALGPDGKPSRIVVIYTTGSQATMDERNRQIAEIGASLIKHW
# Test: Isothermal titration calorimetry, binding to TEM-1 β-lactamase (Example 17)
# Experimental Parameters: ITC
For each entry below, report its ΔG value.
The reply should read as a number followed by its unit.

| Compound | Tested On | Result |
| --- | --- | --- |
| O=C(Oc1cccc(OC(=O)c2cc(B(O)O)cc([N+](=O)[O-])c2)c1)c1cc(B(O)O)cc([N+](=O)[O-])c1 [Compound (9a)] | TEM-1 β-lactamase (Escherichia coli) | -7.864 kcal/mol |
| O=C(Oc1ccc(OC(=O)c2cc(B(O)O)cc([N+](=O)[O-])c2)cc1)c1cc(B(O)O)cc([N+](=O)[O-])c1 [Compound (2a)] | TEM-1 β-lactamase (Escherichia coli) | -7.451 kcal/mol |

Here is the next item to consider.
Record summary for O=C(OCc1ccccc1COC(=O)c1cc(B(O)O)cc([N+](=O)[O-])c1)c1cc(B(O)O)cc([N+](=O)[O-])c1 [Compound (10a)] : reported ΔG = -7.183 kcal/mol
